Data origin, for the record: ChEMBL document CHEMBL2157982

assay: Total blood clearance in Fischer 344 rat at 3 mg/kg, iv; type: ADME, organism-based; design: dose 3 mg/kg, route intravenous; settings: whole blood
MEASURED METRIC: clearance (mL/min/kg)
A number alone suffices; assume mL/min/kg.

Given item "CCN(CC)c1ccc(OC)c2nc(-c3c(OC)cc(COC)cc3OC)c(C)cc12" , the value recorded as its clearance is 44

---

Target: Corticotropin-releasing factor receptor 1 (Homo sapiens)
Sequence (P34998 whole entry): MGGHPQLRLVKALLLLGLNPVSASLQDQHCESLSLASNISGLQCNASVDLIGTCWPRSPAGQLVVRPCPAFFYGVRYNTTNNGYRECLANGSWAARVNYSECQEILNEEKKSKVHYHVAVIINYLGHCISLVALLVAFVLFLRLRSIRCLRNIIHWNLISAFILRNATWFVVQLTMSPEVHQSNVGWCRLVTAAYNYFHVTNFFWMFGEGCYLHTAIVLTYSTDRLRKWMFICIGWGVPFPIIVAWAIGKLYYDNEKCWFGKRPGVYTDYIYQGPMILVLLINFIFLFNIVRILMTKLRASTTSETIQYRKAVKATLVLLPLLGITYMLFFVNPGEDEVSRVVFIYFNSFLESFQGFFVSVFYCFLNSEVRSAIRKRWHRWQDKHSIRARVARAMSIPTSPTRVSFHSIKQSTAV
Experiment: Displacement of [125I]-CRF from human CRF1 receptor expressed in HEK293 cells after 2 hrs by scintillation counting
Assay type: cell-based
MEASURED METRIC: pIC50
// field semantics: pIC50 = negative decimal log of concentration (mol/L)

Sample answers from the record:
- CHEMICAL STRING: "CCN(CC)c1ccc(OC)c2nc(-c3c(OC)cc(C)cc3OC)c(C)cc12"
  pIC50: 7.00
- CHEMICAL STRING: "CCN(CC)c1ccc(OC)c2nc(-c3c(Cl)cc(COC)cc3OC)c(C)cc12"
  pIC50: 7.17
- CHEMICAL STRING: "CCN(CC)c1ccc(F)c2nc(-c3c(OC)cc(COC)cc3OC)c(C)cc12"
  pIC50: 6.65
- CHEMICAL STRING: "CCN(CC)c1ccc(Cl)c2nc(-c3c(OC)cc(COC)cc3OC)c(C)cc12"
  pIC50: 7.21

Given item "COCCN(CC(C)C)c1ccc(OC)c2nc(-c3c(OC)cc(COC)cc3OC)c(C)cc12" , the value recorded as its pIC50 is 6.81

Given item "CCc1cc2c(N(CC)CC)ccc(OC)c2nc1-c1c(OC)cc(COC)cc1OC" , the value recorded as its pIC50 is 6.97

Given item "CCN(CC)c1ccc(OC)c2nc(-c3c(OC)cc(COC)cc3OC)c(F)cc12" , the value recorded as its pIC50 is 6.93

---

test: Solubility of the compound in Britton-Robinson buffer at pH 9 by high-throughput HPLC method; assay type: physicochemical
MEASURED METRIC: solubility (µM)
A number alone suffices; assume µM.

Sample answers from the record:
- CHEMICAL STRING: "CCN(CC)c1ccc(C)c2nc(-c3c(OC)cc(COC)cc3OC)c(C)cc12"
  solubility, µM: 2
- CHEMICAL STRING: "CCN(CC)c1ccc(C#N)c2nc(-c3c(OC)cc(COC)cc3OC)c(C)cc12"
  solubility, µM: 4.2

Given item "CCN(CC)c1ccc(OC)c2nc(-c3c(OC)cc(COC)cc3OC)c(C)cc12" , the value recorded as its solubility is 71
